Sourced from PubChem BioAssay

- TEST_NAME: small-molecule microarray binders of probe aXIP, primary screen, biochemical, NeuroSMM set, 635/667 nm fluorescence (AID 1119);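 also: probe is the protein aXip251-270 applied at 1 µg/mL to compound-printed slides; binding of probe to printed compounds measured as 667 nm fluorescence plus signal to noise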
- COND: higher = more signal, called active from +8 up or from −8 down
composite Z-score of 0.3 or higher: t. Under 0.3: f.

Look over these answered cases.
COMPOUND	CLASS_LABEL
O=C1C[C@@](C(=O)NC2CC2)(c2ccc([N+](=O)[O-])cc2)[C@@H](c2ccc(CO)cc2)N1CC12CC3CC(CC(C3)C1)C2	f
C=CC[C@@H](OC(=O)Nc1ccc(OC)cc1)c1ccc(O)c2ccccc12	t
Cc1ccc(S[C@]2(C(=O)NC3CC3)CC(=O)N(Cc3ccccc3)[C@@H]2c2ccc(CO)cc2)cc1	f
COC(=O)c1ccc(C(O)C2C=CC3C(=O)N(C)C(=O)C3N2NC(=O)OC(C)(C)C)o1 (stereo not given)	t
COCCOC(=O)N1C(=O)[C@@]2(c3ccccc31)[C@H](C(=O)Nc1nc3ccccc3s1)[C@H]1C(=O)O[C@H](c3ccccc3)[C@H](c3ccccc3)N1[C@@H]2c1ccc(OCCO)cc1	f

From here, focus on the item given below.
Exercise: # bool: composite Z-score of CCOC(=O)C1=C[C@@H](CC)N(S(=O)(=O)c2ccc(C)cc2)[C@H]1c1ccccc1 >= 0.3
Key: t
